Origin of measurements: patent US9371336B2

Documented melting point across a set of molecules

- Cc1ccc2nc(-c3cc4ccc(N5C[C@@H]6C[C@H]5CN6C)nc4oc3=O)cn2c1 [Cpd 125]: 211 to 213 °C
- Cc1ccn2cc(-c3cc4ccc(N5C[C@@H](C)N[C@@H](C)C5)nc4oc3=O)nc2n1 [Cpd 99]: 270 to 273 °C
- Cc1cn2cc(-c3cc4ccc(N5C[C@H](C)NC[C@H]5C)nc4oc3=O)nc2c(C)n1 [Cpd 95]: 190 to 192 °C
- CCCN1CCN(c2ccc3cc(-c4nc(C)cs4)c(=O)oc3n2)CC1 [Cpd 21]: 210 to 214 °C
- Cl.O=c1oc2nc(N3CCNCC3)ccc2cc1-c1nc(C(F)(F)F)cs1 [Cpd 16]: 274 to 280 °C
- CCN1CCN(c2ccc3cc(-c4cn5cc(C)ncc5n4)c(=O)oc3n2)C[C@@H]1C [Cpd 143]: 252 to 256 °C

# context switch: different molecule, same melting point
Query: Which value of melting point has been reported for CN1CCN(c2ccc3cc(-c4cn5cccnc5n4)c(=O)oc3n2)CC1 [Cpd 117] in the records?
Response: 266 to 269 °C
